test system: OVCAR-8 complex spheroid, growth inhibition; experiment: Anticancer human tumor OVCAR-8 cell line growth inhibition [Asc]; conditions: second compound 0.1 µM; first compound 1 µM; stronger effect = lower value;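 further: spheroids exposed to agents for 7 days before readout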
Threshold check on viability, T/C: strictly below 80% is Yes; on or above 80% is No.

See these solved cases before continuing.
- Compound: "C=CC(=O)N1CCN(c2nc(=O)n(-c3c(C)ccnc3C(C)C)c3nc(-c4c(O)cccc4F)c(F)cc23)C(C)C1 (stereo not drawn) + Cc1c(S(C)(=O)=O)c(-c2cc(F)cc(N3CCN(c4ccc(NS(=O)(=O)c5ccc(NC(CCN6CCC(C(=O)OCCCP(=O)(O)O)CC6)CSc6ccccc6)c(S(=O)(=O)C(F)(F)F)c5)cc4)CC3)c2)c(-c2ccc(Cl)cc2)n1C(C)C"
  Class: "No"
- Compound: "C#Cc1c(F)ccc2cc(O)cc(-c3ncc4c(N5CC6CCC(C5)N6)nc(OCC56CCCN5CC(F)C6)nc4c3F)c12 (stereo not drawn) + Cc1c(S(C)(=O)=O)c(-c2cc(F)cc(N3CCN(c4ccc(NS(=O)(=O)c5ccc(NC(CCN6CCC(C(=O)OCCCP(=O)(O)O)CC6)CSc6ccccc6)c(S(=O)(=O)C(F)(F)F)c5)cc4)CC3)c2)c(-c2ccc(Cl)cc2)n1C(C)C"
  Class: "No"
- Compound: "O=C(c1ccc(F)c(F)c1Nc1ccc(I)cc1F)N1CC(O)([C@@H]2CCCCN2)C1 + CNC(C)C(=O)NC1CN(S(=O)(=O)c2cccc(S(=O)(=O)N3CCC4CCC(C(=O)NC(c5ccccc5)c5ccccc5)N4C(=O)C(NC(=O)C(C)NC)C3)c2)CCC2CCC(C(=O)NC(c3ccccc3)c3ccccc3)N2C1=O"
  Class: "Yes"
- Compound: "CCN1CCN(Cc2ccc(Nc3ncc(F)c(-c4cc(F)c5nc(C)n(C(C)C)c5c4)n3)nc2)CC1 + Cc1c(S(C)(=O)=O)c(-c2cc(F)cc(N3CCN(c4ccc(NS(=O)(=O)c5ccc(NC(CCN6CCC(C(=O)OCCCP(=O)(O)O)CC6)CSc6ccccc6)c(S(=O)(=O)C(F)(F)F)c5)cc4)CC3)c2)c(-c2ccc(Cl)cc2)n1C(C)C"
  Class: "No"
- Compound: "C#Cc1c(F)ccc2cc(O)cc(-c3ncc4c(N5CC6CCC(C5)N6)nc(OCC56CCCN5CC(F)C6)nc4c3F)c12 (stereo not drawn) + CNC(C)C(=O)NC1CN(S(=O)(=O)c2cccc(S(=O)(=O)N3CCC4CCC(C(=O)NC(c5ccccc5)c5ccccc5)N4C(=O)C(NC(=O)C(C)NC)C3)c2)CCC2CCC(C(=O)NC(c3ccccc3)c3ccccc3)N2C1=O"
  Class: "No"
- Compound: "O=C(c1ccc(F)c(F)c1Nc1ccc(I)cc1F)N1CC(O)([C@@H]2CCCCN2)C1 + Cc1c(S(C)(=O)=O)c(-c2cc(F)cc(N3CCN(c4ccc(NS(=O)(=O)c5ccc(NC(CCN6CCC(C(=O)OCCCP(=O)(O)O)CC6)CSc6ccccc6)c(S(=O)(=O)C(F)(F)F)c5)cc4)CC3)c2)c(-c2ccc(Cl)cc2)n1C(C)C"
  Class: "No"

QUERY: Please determine if COc1c(OCCCN2CCOCC2)ccc2c3n(c(=NC(=O)c4cnc(N)nc4)nc12)CCN3 + Cc1c(S(C)(=O)=O)c(-c2cc(F)cc(N3CCN(c4ccc(NS(=O)(=O)c5ccc(NC(CCN6CCC(C(=O)OCCCP(=O)(O)O)CC6)CSc6ccccc6)c(S(=O)(=O)C(F)(F)F)c5)cc4)CC3)c2)c(-c2ccc(Cl)cc2)n1C(C)C is below 80% in terms of viability, T/C.
RESULT: No

QUERY: Please determine if C=C(F)C(=O)N1CCN(c2nc(OCC3CCCN3C)nc3c2CCN(c2cccc4cccc(Cl)c24)C3)CC1CC#N (stereo not drawn) + CNC(C)C(=O)NC1CN(S(=O)(=O)c2cccc(S(=O)(=O)N3CCC4CCC(C(=O)NC(c5ccccc5)c5ccccc5)N4C(=O)C(NC(=O)C(C)NC)C3)c2)CCC2CCC(C(=O)NC(c3ccccc3)c3ccccc3)N2C1=O is below 80% in terms of viability, T/C.
RESULT: Yes
